Provenance of the data: ChEMBL document CHEMBL1201862

Tested on: COLO 205
Experiment: NCI tumour cell line growth inhibition, 48 h
The source made the active and inactive calls. Cut-off read from the data, not from the text of the source: active = GI50 up to about 1.1 µM and inactive = higher.
MEASUREMENT TYPE: GI50

1) N#Cc1c(-c2ccc([N+](=O)[O-])cc2)c2c([nH]c1=O)-c1ccccc1CCC2 : 83.9 µM (inactive)
2) O=C1c2ccccc2C2C1C(c1ccccc1)C1(Cc3ccccc3C1=O)C2c1ccccc1 (stereo not given) : > 100 µM (inactive)
3) CCNc1nnc(CSc2nc(-c3ccccc3)c(-c3ccccc3)[nH]2)s1 : 19.1 µM (inactive)
4) C#CCOCn1cnc2c(Sc3c([N+](=O)[O-])ncn3C)ncnc21 : > 100 µM (inactive)
5) Oc1c(/N=N\c2ccccc2)c2cccc3ccc4cccc1c4c32 : > 100 µM (inactive)
6) c1ccc2cc(NCNc3ccc4ccccc4c3)ccc2c1 : 18.8 µM (inactive)
7) Cn1c(N)[n+](C(=O)OCc2ccccc2)c(=O)c2c1ncn2C(=O)OCc1ccccc1 : > 100 µM (inactive)
8) CC(=O)Oc1ccc(-c2nnc(-c3ccc(OC(C)=O)cc3)nn2)cc1 : > 100 µM (inactive)
9) CCCCCCCCCCCCOc1ccc(/C=C/C2=[N+](CCCl)CCO2)cc1 : > 100 µM (inactive)
10) CC(=O)OC[C@]1(C)CCCC2(C)C1CCC1C=C(C)[C@H]3CCC12C3 (stereo not given in full) : 38.5 µM (inactive)

---

Tested on: SF-295
Test: NCI tumour cell line growth inhibition, 48 h
Activity calls are given as the source filed them. No stated cut-off is given here; in the data, active = GI50 up to about 1.1 µM and inactive = higher.
MEASUREMENT TYPE: GI50

1) Cc1ccc2c(=O)c(-c3nnsn3)c[nH]c2n1 : > 100 µM (inactive)
2) Cc1ccc(NC(=O)CSc2nnc(Cc3ccccc3)o2)cc1 : > 100 µM (inactive)
3) c1ccc2c(c1)[nH]c1c2ncc2[nH]c3ccccc3c21 : 3.58 µM (inactive)
4) COc1ccc(N2CN(C)CSC2=S)cc1 : 23.4 µM (inactive)
5) O=C(Cc1nc2ccc(C(=O)c3ccccc3)cc2nc1O)C(=O)Nc1ccc(C(F)(F)F)cc1[N+](=O)[O-] : 94.2 µM (inactive)
6) O=C1CNC(=O)N1 : > 1120 µM (inactive)
7) COC(=O)NC(C(F)(F)F)(C(F)(F)F)P1(=O)OCCCO1 : 23.7 µM (inactive)
8) Cc1ccc2nc(CN3CCCCC3)cc(=O)n2c1 : > 100 µM (inactive)
9) COC1(OC)CC2C(=O)N(Cc3ccccc3)C1C(S(=O)(=O)c1ccccc1)C2C(C)S(=O)(=O)c1ccccc1 (stereo unspecified) : > 100 µM (inactive)
10) CC(C)(NO)/C(=N\O)c1ccccc1 : > 10 µM (inactive)
11) CCCCc1ccc(Nc2cc(=O)n(C)c(=O)[nH]2)cc1 : > 100 µM (inactive)

---

Recorded GI50 values for a group of compounds are listed next.
System: SN12C
Experiment: NCI tumour cell line growth inhibition, 48 h
Active and inactive are the calls of the source. Cut-off read from the data, not from the text of the source: active = GI50 up to about 1.1 µM and inactive = higher.
MEASUREMENT TYPE: GI50

1) CN(/N=C/c1cccs1)c1ccc(Cl)cc1[N+](=O)[O-] : 24.5 µM (inactive)
2) CCCC(=O)NC(Nc1ccc(S(=O)(=O)Nc2nc(C)cc(C)n2)cc1)(C(F)(F)F)C(F)(F)F : > 100 µM (inactive)
3) CCCCN(C)C(=O)C1=C(C)NC(C)=C(C(=O)N(C)CCCC)C1 : > 100 µM (inactive)
4) FC(F)(F)c1cc(C2SCc3nc4ccccc4n32)cc(C(F)(F)F)c1 (stereo not given) : 2.9 µM (inactive)
5) CC(=O)Oc1ccc(-c2nnc(-c3ccc(OC(C)=O)cc3)nn2)cc1 : > 100 µM (inactive)
